assay: Volume of distribution at steady state in rat at 1.6 mg/kg administered as intra-arterial infusion for 10 mins and 3.6 mg/kg, po; assay type: ADME, organism-based; conditions: in vivo, read-out: Vdss
RESULT_TYPE: Vd (L/kg)
Report the value in L/kg with no unit label.

Record COc1cccc2c1C(NC[C@]1(c3ccccc3)CC[C@H](OC(=O)Nc3nnc(C4CC4)s3)CC1)=NS2(=O)=O . Reported Vd: 0.9

---

assay: Metabolic stability in human liver microsomes assessed as compound remaining at 3 uM after 10 mins; assay type: ADME; settings: read-out: Stability
# remaining at 10 min, 3 µM per entry
The reply should contain only the number, in %.

- COc1cccc2c1C(NC[C@]1(c3ccccc3)CC[C@H](NC(=O)OC(C)C)CC1)=NS2(=O)=O: 85
- COc1cccc2c1C(NC[C@]1(c3ccccc3)CC[C@@H](O)CC1)=NS2(=O)=O: 98
- CCOC(=O)N[C@H]1CC[C@](CNC2=NS(=O)(=O)c3cccc(OC)c32)(c2ccccc2)CC1: 55

Continue with the next compound.
Form: compound = COc1cccc2c1C(NC[C@]1(c3ccccc3)CC[C@H](OC(=O)Nc3nnc(C4CC4)s3)CC1)=NS2(=O)=O ; remaining at 10 min, 3 µM = 75

Data origin: ChEMBL document CHEMBL3621160
